System: K562
test protocol: cell viability relative to vehicle control; higher = less cytotoxic;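 further: after 48 h exposure read by CellTiter-Glo luminescence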
test settings: 10 µM; SRSF2 genotype: SRSF2 wt/wt
Counter-ions that a name gives are not always drawn.
molecules and their reported cell viability
observation type: cell viability (%)

{"molecule": "COc1ccc2[nH]c([S@@+]([O-])Cc3ncc(C)c(OC)c3C)nc2c1 [Esomeprazole sodium]", "tested target": "K562", "experimental result": 94.4}
{"molecule": "CC1Cc2ccccc2N1NC(=O)c1ccc(Cl)c(S(N)(=O)=O)c1 (stereo not drawn) [Indapamide (Lozol)]", "tested target": "K562", "experimental result": 103}
{"molecule": "CN1CCC(=C2c3ccccc3CC(=O)c3sccc32)CC1 [Ketotifen fumarate (Zaditor)]", "tested target": "K562", "experimental result": 97.7}
{"molecule": "CC(C)c1cc2c(N3CCN(C4=NCC(C)(C)S4)CC3)ncnc2s1", "tested target": "K562", "experimental result": 67.3}
{"molecule": "Nc1nc2cc(-c3ccc4ncc(C(=O)N5CCOCC5)n4c3)ccc2o1", "tested target": "K562", "experimental result": 84.2}
{"molecule": "NCCc1ccc(O)c(O)c1 [Dopamine hydrochloride (Inotropin)]", "tested target": "K562", "experimental result": 93.1}
{"molecule": "CC(C)OC(=O)C1=CN(C(=O)c2ccc(F)c(F)c2)CC(C)(C)c2c1[nH]c1ccccc21 [Turofexorate Isopropyl (XL335)]", "tested target": "K562", "experimental result": 103}
{"molecule": "C[C@@]1(c2cc(-c3cncnc3)c(F)cc2F)CCSC(N)=N1", "tested target": "K562", "experimental result": 100}

----------
Test system: MOLM14
test protocol: cell viability relative to vehicle control; higher = less cytotoxic
test settings: 10 µM; SRSF2 genotype: SRSF2 wt/wt
Structures can show the parent of a compound that is named as a salt.
compounds and their reported cell viability

{"compound": "CNC(=O)c1ccccc1Oc1nc(Nc2cc(OC)c(OC)c(OC)c2)ncc1Br", "cell viability (%)": 5.16}
{"compound": "C=C1[C@H](O)C[C@H]2[C@@H](/C=C(\\C)C(=O)[C@@]3(O)C[C@H](C)[C@H](O)[C@@H]3[C@H]1O)C2(C)C", "cell viability (%)": 98.1}
{"compound": "C[C@H](CC[C@@H](O[C@@H]1O[C@H](CO[C@@H]2O[C@H](CO)[C@@H](O)[C@H](O)[C@H]2O)[C@@H](O)[C@H](O)[C@H]1O[C@@H]1O[C@H](CO)[C@@H](O)[C@H](O)[C@H]1O)C(C)(C)O)[C@H]1CC[C@@]2(C)[C@@H]3CC=C4[C@@H](CC[C@H](O[C@@H]5O[C@H](CO[C@@H]6O[C@H](CO)[C@@H](O)[C@H](O)[C@H]6O)[C@@H](O)[C@H](O)[C@H]5O)C4(C)C)[C@]3(C)[C@H](O)C[C@]12C [Mogroside V]", "cell viability (%)": 104}
{"compound": "CC(C)NCC(O)COc1ccc(CCOCC2CC2)cc1 (stereo not given) [Betaxolol hydrochloride (Betoptic)]", "cell viability (%)": 99.7}
{"compound": "CC(C)c1noc(N2CCC(COc3ccc(-c4ccc(S(C)(=O)=O)cc4)nc3)CC2)n1", "cell viability (%)": 95.7}

----------
Test system: MOLM14
test protocol: cell viability relative to vehicle control; higher = less cytotoxic
test settings: 10 µM; SRSF2 genotype: SRSF2 P95H/wt
Structures can show the parent of a compound that is named as a salt.
compounds and their reported cell viability
observation type: cell viability

{"compound": "O=C1NS(=O)(=O)c2ccccc21", "experimental result": "97.9%"}
{"compound": "COc1ccc([C@@H]2OC[C@H]3[C@@H]2CO[C@@H]3c2ccc3c(c2)OCO3)cc1OC", "experimental result": "97.2%"}
{"compound": "Nc1nc(N)c2nc(-c3cccc(O)c3)cnc2n1", "experimental result": "57.2%"}
{"compound": "COc1ccc2c(c1)c(CC(=O)O)c(C)n2C(=O)c1ccc(Cl)cc1 [Indometacin Sodium]", "experimental result": "105%"}
{"compound": "NC(=O)c1nc(F)cnc1O", "experimental result": "89.8%"}
{"compound": "CCCCOc1c(C(=O)c2c(F)cc(C)cc2F)c[nH]c2nncc1-2", "experimental result": "68.8%"}
{"compound": "Cc1nc(NC(=O)N2CCC[C@H]2C(N)=O)sc1-c1ccnc(C(C)(C)C(F)(F)F)c1", "experimental result": "52.6%"}
{"compound": "CN(CCOc1ccc(CC2SC(=O)NC2=O)cc1)c1ccccn1 (centres undefined) [Rosiglitazone HCl]", "experimental result": "103%"}
{"compound": "CCC(C)C1OC2(CCC1C)CC1CC(CC=C(C)C(OC3CC(OC)C(OC4CC(OC)C(O)C(C)O4)C(C)O3)C(C)C=CC=C3COC4C(O)C(C)=CC(C(=O)O1)C34O)O2 (centres undefined)", "experimental result": "21.3%"}
